assay: Pharmacokinetics in nude mice; format: in vivo; conditions: female, mouse, plasma, intravenous, 50 mg/kg, read-out: apparent steady-state volume of distribution (Vss)
metricName: Vd (L/kg)
Quick note: give the figure in L/kg, leave out the unit.

Entry Cn1c(COP(=O)(NCCBr)NCCBr)cnc1[N+](=O)[O-] — recorded Vd = 0.542

###

experiment: Pharmacokinetics after repeated administration (Q7D×3) to rats; format: in vivo; conditions: rat, plasma, iv; TH302 in rats, 12.5 mg/kg Q7D×3, Day 15
metricName: clearance (mL/min/kg)
I only need the number, in mL/min/kg, no unit after it.

Form field clearance, entry Cn1c(COP(=O)(NCCBr)NCCBr)cnc1[N+](=O)[O-] [TH302] : 293

###

assay: Pharmacokinetics of TH302 in Beagle Dogs (Table 6); type: in vivo; conditions: male, dog, plasma, intravenous, Males, 4 mg/kg, read-out: T½ (converted)
metricName: half-life

Short answer for Cn1c(COP(=O)(NCCBr)NCCBr)cnc1[N+](=O)[O-] : half-life was 16.1 min

###

test: Pharmacokinetics in Sprague-Dawley rats (single dose i.v. and p.o.); type: in vivo, male Sprague-Dawley rats; details: male, Sprague-Dawley, rat, plasma, iv, 1 mg/kg, rats, 1 mg/kg i.v. bolus, MEAN; read-out: Cmax
metricName: Cmax (ng/mL)
Provide only the numeric value, understood in ng/mL.

Per the record, Cn1c(COP(=O)(NCCBr)NCCBr)cnc1[N+](=O)[O-] [TH302] has Cmax of 802

###

Assay: Pharmacokinetics in Sprague-Dawley rats (single dose i.v. and p.o.)
Type: in vivo, male Sprague-Dawley rats
Conditions: male, Sprague-Dawley, rat, plasma, iv, 1 mg/kg, rats, 1 mg/kg i.v. bolus, MEAN; read-out: MRT
Method: Pharmacokinetic studies were performed in male CD-1 (50 mg/kg i.p. or orally (p.o.)) or female nude mice (50 mg/kg i.v. or i.p.), male Sprague-Dawley rats (1, 5, 20 and 50 mg/kg i.v. and 100 mg/kg, p.o.), beagle dogs (20 mg/kg, i.v.) and cynomologus monkeys (20 mg/kg i.v.). Plasma TH302 concentrations were analyzed using a LC/MS method and the pharmacokinetic parameters computed using a noncompartmental method. Interspecies scaling was performed according to standard methods. […]
metricName: MRT (min)
Express it in min; write the number only.

Please fill in: MRT reported for Cn1c(COP(=O)(NCCBr)NCCBr)cnc1[N+](=O)[O-] = 53.4

###

assay: Pharmacokinetics in Sprague-Dawley rats (single dose i.v. and p.o.); type: in vivo, male Sprague-Dawley rats; conditions: male, Sprague-Dawley, rat, plasma, iv, 1 mg/kg, rats, 1 mg/kg i.v. bolus, individual animals; read-out: AUC(0-t)
metricName: AUC(0-t) (ng·h/mL)
Numbers only here, please. The scale is ng·h/mL.

For record Cn1c(COP(=O)(NCCBr)NCCBr)cnc1[N+](=O)[O-] the listed AUC(0-t) is 175

###

assay: Pharmacokinetics in Sprague-Dawley rats (single dose i.v. and p.o.); type: in vivo, male Sprague-Dawley rats; settings: male, Sprague-Dawley, rat, in vivo, iv, 50 mg/kg, rats, 50 mg/kg i.v. bolus, MEAN; read-out: Vss
metricName: Vd (L/kg)
// return numeric value only (unit: L/kg, not printed)

The molecule listed as Cn1c(COP(=O)(NCCBr)NCCBr)cnc1[N+](=O)[O-] has a reported Vd of 1.67
